These measurements were taken from ChEMBL document CHEMBL4017483.

Molecular target: Oxytocin receptor (Homo sapiens, UniProt P30559)
Sequence (P30559 whole entry): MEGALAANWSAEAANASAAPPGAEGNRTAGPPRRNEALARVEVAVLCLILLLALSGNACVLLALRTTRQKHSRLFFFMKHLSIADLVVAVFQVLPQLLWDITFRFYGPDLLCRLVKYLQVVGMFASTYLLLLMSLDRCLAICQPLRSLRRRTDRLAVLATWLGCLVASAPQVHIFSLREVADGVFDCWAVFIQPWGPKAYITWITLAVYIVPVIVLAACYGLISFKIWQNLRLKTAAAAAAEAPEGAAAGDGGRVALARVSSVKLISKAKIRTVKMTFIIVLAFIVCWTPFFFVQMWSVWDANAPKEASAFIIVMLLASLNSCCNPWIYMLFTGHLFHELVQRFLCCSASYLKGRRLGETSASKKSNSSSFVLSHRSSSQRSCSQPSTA
Assay: Agonist activity at human OTR expressed in CHO cells assessed as calcium mobilization measured after 30 mins by Fluo-4-AM dye based FLIPR assay
Bridge positions count the residues as written; N and C are the ends. Square brackets hold non-standard residues; d marks the D form. Peptide text beside a SMILES is read from it. NMeA = CN[C@@H](C)C(=O)O; Mpa = O=C(O)CCS
Recorded pEC50, one value per entry.
# pEC50 = -log10(concentration in molar units)

Solved entries:
[in] Fill in pEC50 for record CC[C@H](C)[C@@H]1NC(=O)[C@H](Cc2ccc(O)cc2)NC(=O)CCSSC[C@@H](C(=O)N2CCC[C@H]2C(=O)N[C@@H](CC(C)C)C(=O)NCC(N)=O)NC(=O)[C@H](CC(N)=O)NC(=O)[C@H](CCCNC(=N)N)NC1=O ([Mpa]YIRNCPLG-NH2; disulfide 1-6)
[out] 8.92

[in] Give the measured pEC50 for CC[C@H](C)[C@@H]1NC(=O)[C@H](Cc2ccc(O)cc2)NC(=O)CCSSC[C@@H](C(=O)N[C@@H](CCC(=O)O)C(=O)N[C@@H](CC(C)C)C(=O)NCC(N)=O)NC(=O)[C@H](CC(N)=O)NC(=O)[C@H](CCC(N)=O)NC1=O ([Mpa]YIQNCELG-NH2; disulfide 1-6)
[out] 9.46

[in] Kindly indicate its recorded pEC50. Item: CC[C@H](C)[C@@H]1NC(=O)[C@H](Cc2ccc(O)cc2)NC(=O)CCSSC[C@@H](C(=O)N2CCC[C@H]2C(=O)N[C@@H](CC(C)C)C(=O)NCC(N)=O)NC(=O)[C@H](CC(N)=O)NC(=O)[C@H](CC(C)C)NC1=O ([Mpa]YILNCPLG-NH2; disulfide 1-6)
[out] 9.11

Next:
[in] For the molecule CC[C@H](C)[C@@H]1NC(=O)[C@H](Cc2ccc(O)cc2)NC(=O)CCSSC[C@@H](C(=O)N(C)[C@@H](C)C(=O)N[C@@H](CC(C)C)C(=O)NCC(N)=O)NC(=O)[C@H](CC(N)=O)NC(=O)[C@H](CCC(N)=O)NC1=O ([Mpa]YIQNC[NMeA]LG-NH2; disulfide 1-6) , give its measured pEC50 value.
[out] 9.96

* * *

organism: Homo sapiens; test: Selectivity ratio of EC50 for human V1b receptor to EC50 for human OTR
Bridge positions count the residues as written; N and C are the ends. Square brackets hold non-standard residues; d marks the D form. Peptide text beside a SMILES is read from it. Mpa = O=C(O)CCS
Measured Ratio EC50, listed per entry.

[in] Determine its reported Ratio EC50: "CC[C@H](C)[C@@H]1NC(=O)[C@H](Cc2ccc(O)cc2)NC(=O)CCSSC[C@@H](C(=O)N2C[C@H](O)C[C@H]2C(=O)N[C@@H](CC(C)C)C(=O)NCC(N)=O)NC(=O)[C@H](CC(N)=O)NC(=O)[C@H](CCC(N)=O)NC1=O"
[out] > 10000

[in] State, in one line, measured Ratio EC50 of CC[C@H](C)[C@@H]1NC(=O)[C@H](Cc2ccc(O)cc2)NC(=O)CCSSC[C@@H](C(=O)N[C@@H](CCC(=O)O)C(=O)N[C@@H](CC(C)C)C(=O)NCC(N)=O)NC(=O)[C@H](CC(N)=O)NC(=O)[C@H](CCC(N)=O)NC1=O ([Mpa]YIQNCELG-NH2; disulfide 1-6)
[out] > 100

[in] Please supply the value of reported Ratio EC50 for the item CC[C@H](C)[C@@H]1NC(=O)[C@H](Cc2ccc(O)cc2)NC(=O)CCSSC[C@@H](C(=O)N2CCC[C@H]2C(=O)N[C@@H](CC(C)C)C(=O)NCC(N)=O)NC(=O)[C@H](C)NC(=O)[C@H](CCC(N)=O)NC1=O ([Mpa]YIQACPLG-NH2; disulfide 1-6)
[out] > 5

[in] Tell me Ratio EC50 reported for "CC[C@H](C)[C@@H]1NC(=O)[C@H](Cc2ccc(O)cc2)NC(=O)CCSSC[C@@H](C(=O)N2CCC[C@H]2C(=O)N[C@@H](CC(C)C)C(=O)N(C)CC(N)=O)NC(=O)[C@H](CC(N)=O)NC(=O)[C@H](CCC(N)=O)NC1=O"
[out] > 100

[in] Give the measured Ratio EC50 for "S"
[out] > 100

[in] State its Ratio EC50: CC[C@H](C)[C@@H]1NC(=O)[C@H](Cc2ccc(O)cc2)NC(=O)CCSSC[C@@H](C(=O)N2CCC[C@H]2C(=O)N[C@@H](CC(C)C)C(=O)NCC(N)=O)NC(=O)[C@H](CO)NC(=O)[C@H](CCC(N)=O)NC1=O ([Mpa]YIQSCPLG-NH2; disulfide 1-6)
[out] > 8

Others:
[in] Complete the entry with Ratio EC50 for CC[C@H](C)[C@@H]1NC(=O)[C@H](Cc2ccccc2)NC(=O)CCSSC[C@@H](C(=O)N2CCC[C@H]2C(=O)N[C@@H](CC(C)C)C(=O)NCC(N)=O)NC(=O)[C@H](CC(N)=O)NC(=O)[C@H](CCC(N)=O)NC1=O ([Mpa]FIQNCPLG-NH2; disulfide 1-6)
[out] > 100

[in] Give the reported value of Ratio EC50 for this record: CC[C@H](C)[C@@H]1NC(=O)[C@H](Cc2ccc(O)cc2)NC(=O)CCSSC[C@@H](C(=O)N[C@@H](CO)C(=O)N[C@@H](CC(C)C)C(=O)NCC(N)=O)NC(=O)[C@H](CC(N)=O)NC(=O)[C@H](CCC(N)=O)NC1=O ([Mpa]YIQNCSLG-NH2; disulfide 1-6)
[out] > 1000

[in] Indicate its recorded Ratio EC50; the compound in question is CC[C@H](C)[C@@H]1NC(=O)[C@H](Cc2ccc(O)cc2)NC(=O)CCSSC[C@@H](C(=O)N2CCC[C@H]2C(=O)N[C@@H](CC(C)C)C(=O)NCC(N)=O)NC(=O)[C@H](CC(N)=O)NC(=O)[C@H](CCC(=O)O)NC1=O ([Mpa]YIENCPLG-NH2; disulfide 1-6)
[out] > 10

* * *

species on record: Homo sapiens; assay: Selectivity ratio of EC50 for human V1b receptor to EC50 for human OTR
Bridge positions count the residues as written; N and C are the ends. Square brackets hold non-standard residues; d marks the D form. Peptide text beside a SMILES is read from it. βAla = NCCC(=O)O; Mpa = O=C(O)CCS
Ratio EC50 by entry:

In the examples that follow, each entry is paired with its recorded Ratio EC50.
[in] Complete the entry with Ratio EC50 for CC[C@H](C)[C@@H]1NC(=O)[C@H](Cc2ccc(O)cc2)NC(=O)CCSSC[C@@H](C(=O)N2CCC[C@H]2C(=O)N[C@@H](CC(C)C)C(=O)NCC(N)=O)NC(=O)[C@H](CC(N)=O)NC(=O)[C@H](Cc2ccccc2)NC1=O ([Mpa]YIFNCPLG-NH2; disulfide 1-6)
[out] > 4

[in] Specify measured Ratio EC50 for CC[C@H](C)[C@@H]1NC(=O)[C@H](CC(C)C)NC(=O)CCSSC[C@@H](C(=O)N2CCC[C@H]2C(=O)N[C@@H](CC(C)C)C(=O)NCC(N)=O)NC(=O)[C@H](CC(N)=O)NC(=O)[C@H](CCC(N)=O)NC1=O ([Mpa]LIQNCPLG-NH2; disulfide 1-6) .
[out] > 10

[in] Provide measured Ratio EC50 value, entry: CC[C@H](C)[C@@H]1NC(=O)[C@H](Cc2ccc(O)cc2)NC(=O)CCSSC[C@@H](C(=O)N2CCC[C@H]2C(=O)N[C@@H](CC(C)C)C(=O)NCC(N)=O)NC(=O)[C@H](CCC(=O)O)NC(=O)[C@H](CCC(N)=O)NC1=O ([Mpa]YIQECPLG-NH2; disulfide 1-6)
[out] > 1

[in] Report Ratio EC50 for CC[C@H](C)[C@@H]1NC(=O)[C@H](Cc2ccc(O)cc2)NC(=O)CCSSC[C@@H](C(=O)N2CCC[C@H]2C(=O)N[C@@H](CC(C)C)C(=O)N[C@@H](C)C(N)=O)NC(=O)[C@H](CC(N)=O)NC(=O)[C@H](CCC(N)=O)NC1=O ([Mpa]YIQNCPLA-NH2; disulfide 1-6)
[out] > 10

[in] For CC[C@H](C)[C@@H]1NC(=O)[C@H](Cc2ccc(O)cc2)NC(=O)CCSSC[C@@H](C(=O)N2CCC[C@H]2C(=O)N[C@@H](CC(C)C)C(=O)N[C@@H](Cc2ccccc2)C(N)=O)NC(=O)[C@H](CC(N)=O)NC(=O)[C@H](CCC(N)=O)NC1=O ([Mpa]YIQNCPLF-NH2; disulfide 1-6) , write its Ratio EC50.
[out] > 10

We now examine a further molecule.
[in] State its Ratio EC50 for this molecule: CC[C@H](C)[C@@H]1NC(=O)[C@H](Cc2ccc(O)cc2)NC(=O)CCNC(=O)C[C@@H](C(=O)N2CCC[C@H]2C(=O)N[C@@H](CC(C)C)C(=O)NCC(N)=O)NC(=O)[C@H](CC(N)=O)NC(=O)[C@H](CCC(N)=O)NC1=O ([βAla]YIQNDPLG-NH2; lactam N-6)
[out] > 7.7
